B1: SPRY1 (parent)
chain: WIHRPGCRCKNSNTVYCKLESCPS

# Variants of: B1
# runDescription: protein stability index of a GFP-peptide fusion (GPS, HEK-293T) (PSI 1-6); higher = more stable;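 further: lentivirally expressed fusions sorted by FACS into six bins by GFP to DsRed ratio, PSI derived from sequencing read proportions per bin multiplied by bin number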
# studyConditions: c terminus: a fixed tail appended
measurementLabel: protein stability index

{"sequenceChange": "V15F", "experimentalValue": 2.37}
{"sequenceChange": "R8S", "experimentalValue": 2.24}
{"sequenceChange": "W1Q", "experimentalValue": 3.23}
{"sequenceChange": "N11L", "experimentalValue": 2.51}
{"sequenceChange": "N11Q", "experimentalValue": 2.41}
{"sequenceChange": "V15P", "experimentalValue": 3.11}
{"sequenceChange": "G6M", "experimentalValue": 2.16}
